Data credit: PubChem BioAssay

Procedure Summary: probe aEGFR binding to arrayed compounds – biochemical, biotinylated probe, 635/667 nm fluorescence, primary screen (AID 1097);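 note: probe is a biotinylated anti-EGFR antibody binding compounds printed on slides; score combines fluorescence near 667 nm and signal to noise of each spot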
Conditions Used: small-molecule microarray, higher = more signal
composite z-score listing for selected compounds.

>  <Compound>
O=C1O[C@H](c2ccccc2)[C@H](c2ccccc2)N2[C@H]1[C@@H](C(=O)N1CCN(c3ncccn3)CC1)[C@]1(C(=O)Nc3ccc(C#CC4=CCCCC4)cc31)[C@H]2c1ccccc1OCCO

>  <composite z-score>
-0.0493

$$$$
>  <Compound>
[N-]=[N+]=Nc1ccccc1C[C@@]1(C(=O)N2CCCCC2)N=C(c2ccc(OCCCO)cc2)O[C@@H]1c1ccccc1

>  <composite z-score>
-0.0382

$$$$
>  <Compound>
C=CCN1Cc2ccccc2[C@@H]2OC(c3ccc(OCCCO)cc3)=N[C@]2(CCS(=O)(=O)c2ccccc2)C1=O

>  <composite z-score>
-0.0261

$$$$
>  <Compound>
NC(=O)[C@@]1(Cc2ccccc2)N=C(c2ccc(OCCCO)cc2)O[C@H]1c1ccccc1

>  <composite z-score>
-0.0996

$$$$
>  <Compound>
CC=CC(O)C1C=CC2C(=O)N(C)C(=O)C2N1N(c1ccccc1)c1ccccc1 (stereo not drawn)

>  <composite z-score>
0.248

$$$$
>  <Compound>
COCCOC(=O)N1C(=O)[C@@]2(c3ccccc31)[C@H](C(=O)N1CCCCCCC1)[C@H]1C(=O)O[C@H](c3ccccc3)[C@H](c3ccccc3)N1[C@@H]2c1ccc(OCCO)cc1

>  <composite z-score>
1.38

$$$$
>  <Compound>
O=C1[C@H]2C=C(I)[C@H](C[C@@H]2OCCCCO)[C@@]12CO2

>  <composite z-score>
-0.165

$$$$
>  <Compound>
COC(=O)[C@@]1(Cc2ccccc2)[C@H]2c3cc(C(=O)N4CCCC4)n(Cc4ccc(O)c(OC)c4)c3C[C@H]2CN1C(=O)c1ccccc1

>  <composite z-score>
0.249

$$$$

====

Quick reference: composite z-score of the listed items.
Tested on: glycogen synthase kinase-3 (GSK3A per assay name; protocol says GSK3B)
Procedure Summary: compounds binding glycogen synthase kinase-3 – biochemical, small-molecule microarray, 635 nm fluorescence, GSK3A, primary screen (AID 1103); note: the record names both GSK3A and GSK3B
Conditions Used: fluorescence 635 nm, higher = more signal
Measured Quantity: composite z-score

>  <Compound>
O=C1C2C=CC(C(O)COCc3ccccc3)N(Nc3ccc([N+](=O)[O-])cc3)C2C(=O)N1c1ccccc1 (centres undefined)

>  <Assay Value>
1.32

$$$$
>  <Compound>
C=CCNC(=O)[C@H]1[C@@H]2C(=O)O[C@@H](c3ccccc3)[C@@H](c3ccccc3)N2[C@@H](c2ccc(OCCO)cc2)[C@]12C(=O)Nc1ccc(C#CCC(C(=O)OC)C(=O)OC)cc12

>  <Assay Value>
1.09

$$$$
>  <Compound>
COc1ccc(CCNC(=O)[C@@]2(c3ccc([N+](=O)[O-])cc3)CC(=O)N(CC34CC5CC(CC(C5)C3)C4)[C@@H]2c2ccc(CO)cc2I)cc1

>  <Assay Value>
1.04

$$$$
>  <Compound>
CCOc1cc(C(O)C2C=CC3C(=O)N(c4ccccc4)C(=O)C3N2Nc2ccc(C(C)C)cc2)ccc1O (centres undefined)

>  <Assay Value>
1.05

$$$$
>  <Compound>
[N-]=[N+]=Nc1ccccc1C[C@]1(C(=O)NCc2ccccc2)N=C(c2ccc(OCCCO)cc2)O[C@H]1c1ccccc1N=[N+]=[N-]

>  <Assay Value>
0.34

$$$$
>  <Compound>
COC(=O)C[C@H]1O[C@@H](CCc2ccccc2)[C@@H](C)[C@@H]1[Si](C)(C)c1ccc(OC)cc1

>  <Assay Value>
-1.04

$$$$
>  <Compound>
COCCOC(=O)N1C(=O)[C@@]2(c3cc(C#CC4=CCCCC4)ccc31)[C@H](C(N)=O)[C@H]1C(=O)O[C@H](c3ccccc3)[C@H](c3ccccc3)N1[C@@H]2c1ccc(O)cc1

>  <Assay Value>
0.96

$$$$
>  <Compound>
CC(C)NC(=O)[C@@H]1c2ccccc2C(=O)N(C(C)C)[C@H]1c1ccc(CO)cc1

>  <Assay Value>
0.134

$$$$
>  <Compound>
C=CCC(OC(C)=O)[C@@H]1[C@@H](N(Cc2ccc(-c3cccc(C(F)(F)F)c3)o2)C(=O)c2cccc3ccccc23)c2cc(OCCCO)ccc2N1C(=O)Cc1ccc2ccccc2c1 (some centres undefined)

>  <Assay Value>
-1.07

$$$$
>  <Compound>
CCOC(=O)C[C@H]1[C@H](OC(=O)c2ccc(C(=O)c3ccccc3)cc2)[C@@H](NC(=O)c2ccccc2)c2cc(OCCCO)ccc2N1C(=O)c1ccccc1

>  <Assay Value>
0.0643

$$$$
>  <Compound>
CCOC(=O)C[C@H]1[C@H](OC(=O)c2cc3ccccc3oc2=O)[C@@H](NC(=O)CC(C)C)c2cc(OCCCO)ccc2N1C(=O)c1ccccc1

>  <Assay Value>
0.53

$$$$
>  <Compound>
CN1C(=O)C2C=CC(C(O)C=Cc3ccc([N+](=O)[O-])cc3)N(Nc3ccccc3)C2C1=O (centres undefined)

>  <Assay Value>
1.15

$$$$
>  <Compound>
CC(=O)NCCCC[C@@H]1NC(=O)[C@H]2C[C@@H](C(=O)O)[C@@H](c3ccc(O)cc3)N2C1=O

>  <Assay Value>
1.34

$$$$
>  <Compound>
C=CCC(OC(C)=O)[C@@H]1[C@@H](N(Cc2ccc(-c3cccc(C(F)(F)F)c3)o2)C(=O)Cc2ccc(OC)cc2)c2cc(OCCCO)ccc2N1C(=O)c1ccc2ccccc2c1 (some centres undefined)

>  <Assay Value>
-1.46

$$$$
>  <Compound>
C=C[C@H](C)[C@@H](OC(=O)Nc1ccc(SC)cc1)c1ccc(O)c2ccccc12

>  <Assay Value>
1.28

$$$$
>  <Compound>
CC(c1ccccc1)C(O)C1C=CC2C(=O)N(c3ccccc3)C(=O)C2N1Nc1ccccc1 (centres undefined)

>  <Assay Value>
0.297

$$$$
>  <Compound>
COC(=O)[C@H](Cc1ccccc1)N[C@H](/C=C/C1CC1)[C@@H](O)Cc1ccccc1

>  <Assay Value>
-1.22

$$$$
>  <Compound>
COCCOC(=O)N1C(=O)[C@@]2(c3ccccc31)[C@H](C(=O)N1CCc3cc(OC)c(OC)cc3C1)[C@H]1C(=O)O[C@H](c3ccccc3)[C@H](c3ccccc3)N1[C@@H]2c1ccc(O)cc1

>  <Assay Value>
0.691

$$$$
>  <Compound>
Cc1ccc(/C=C/C=O)cc1

>  <Assay Value>
-0.472

$$$$
>  <Compound>
CCCNC(=O)[C@@H]1c2ccccc2C(=O)N(Cc2ccccc2OC)[C@H]1c1ccc(CO)cc1

>  <Assay Value>
0.68

$$$$
>  <Compound>
COCCOC(=O)N1C(=O)[C@@]2(c3cc(C#CCCO)ccc31)[C@H](c1ccc(OCCO)cc1)N1[C@H](c3ccccc3)[C@H](c3ccccc3)OC(=O)[C@H]1[C@@H]2C(N)=O

>  <Assay Value>
1.3

$$$$
>  <Compound>
C=CC[C@@]1(C(=O)N2CCCCC2)N=C(c2ccc(OCCCO)cc2)O[C@@H]1c1ccccc1CN=[N+]=[N-]

>  <Assay Value>
-0.0684

$$$$
>  <Compound>
O=C(CS)NCCCCCNC(=O)[C@H]1C[C@H]2C(=O)NCC(=O)N2[C@H]1c1ccc(O)cc1

>  <Assay Value>
-1.32

$$$$
>  <Compound>
C=C(CCCC)/C(=C/C[C@H](OC(C)=O)c1ccc(OCCO)cc1)c1cnc2ccccc2c1

>  <Assay Value>
0.209

$$$$
>  <Compound>
COC(=O)[C@@]1(Cc2ccccc2)[C@H]2c3cc(C(=O)N(C)C)n(Cc4ccc(OC)c(OC)c4)c3C[C@H]2CN1C(=O)c1ccccc1

>  <Assay Value>
0.454

$$$$
>  <Compound>
CCCCCCc1nc(-c2ccc(-c3ccc(Cl)c(Cl)c3)o2)c(C)c2c1[Si](C(C)C)(C(C)C)OC2

>  <Assay Value>
-0.555

$$$$
>  <Compound>
COc1cc2c(cc1O)C(c1cccs1)N(Cc1cccc(OC(F)(F)F)c1)CC2 (centres undefined)

>  <Assay Value>
-0.0228

$$$$
>  <Compound>
Cc1ccc([C@H]2C(C(=O)O)=CCN2S(=O)(=O)c2ccc(C)cc2)cc1

>  <Assay Value>
0.47

$$$$
>  <Compound>
O=C1C2C=CC(C(O)C=Cc3ccc([N+](=O)[O-])cc3)N(Nc3ccccc3F)C2C(=O)N1c1ccccc1 (centres undefined)

>  <Assay Value>
1.28

$$$$
